test system: Hep G2 2.2.15 cells; assay: MTT toxicity test; format: cell-based; details: Hep G2 2.2.15 cells, 3 days, MTT; read-out: CC50
outcome.measure: CC50 (µM)
Dear colleague, please return just the value in µM, with no unit written.

query: Form field - read-out: CC50; system: Hep G2 2.2.15 cells; submitted item: CCCCCCCCCCCCCCCCCCCCCCCCCC(=O)N[C@@H](CO[C@H]1O[C@H](CO)[C@H](O)[C@H](O)[C@H]1O)[C@H](O)[C@H](O)CCCCCCCCCCCCCC [alpha galactosyl ceramide, reference compound]
result: 8

* * *

test system: Hep G2 2.2.15 cells; experiment: MTT toxicity test; assay type: cell-based
outcome.measure: CC50

query: Form field - read-out: CC50; system: Hep G2 2.2.15 cells; submitted item: COCCCCCCCCN1CC(O)C(O)C(O)C1C(C)O (stereo not shown) [N-9-oxadecyl-6-methyl-DGJ]
result: > 2000 µM
